Readings of melting point for the listed compounds

A selection of reference data follows.
• O[C@H]1CC[C@H](Nc2nccc(-c3c[nH]c4ccccc34)n2)CC1 = 258 to 260 °C
• C1=C(c2c[nH]c3ncccc23)CCN(CCOc2cccc3ncccc23)C1 = 202 to 205 °C
• CCCCN(CC)CC(=O)N1c2ccccc2N(C)C(=O)c2cncnc21 = 131 to 133 °C
• C#CCn1c(-c2ccc(OC)cc2)c([N+](=O)[O-])c2ccc(OC)cc2c1=O = 162 to 164 °C
• ON=Cc1c(C(F)(F)F)ccc(F)c1F = 111 to 112 °C

Would you kindly share the measured melting point for C=CCNC(=O)ON=C1SCOC1C (stereo not given) ? 66 to 67.5 °C

Recorded melting point for Nc1cnccc1Oc1ccc2[nH]ccc2c1 , please? 155 to 157 °C

Sample Cc1cc(N2CC=C(C(N)=O)CC2)c2cccc(-c3ccc(Cl)cc3Cl)c2n1 — what was its melting point? 264 to 266 °C

Using the record for CC(CS(=O)(=O)c1ccc(Oc2ccc(Cl)cc2)cc1)N(O)C=O (stereo not given) , report its melting point. 144 to 145 °C

Which melting point reading was recorded for the compound CCc1nnc2c(N(CC)CC)nc3cc(Cl)c(Cl)cc3n12 ? 147 to 149 °C

###

Listed molecules paired with reported melting point

• Fc1c(F)c(F)c2c(CCNCc3cccc(OCC(F)(F)F)c3)c[nH]c2c1F = 107 to 108 °C
• N#CCCN1CC2C(C1)C2Nc1ncc2cc(-c3ccccc3Cl)c(=O)n(C3CC3)c2n1 (stereo unspecified) = 150 to 152 °C
• O=[N+]([O-])c1ccc(Sc2ccc(OCC3CO3)cc2)cc1 (stereo unspecified) = 96 to 99 °C
• CNS(=O)(=O)c1cc(C)oc1CC(=O)O = 112 to 113 °C
• O=C(CCCN1CCC2(CC(O)c3c(Cl)cccc32)C1)c1ccc(F)cc1 (stereo unspecified) = 161 to 163 °C
• O=CN1C2CCC1CC(Oc1ccc(Cl)cn1)C2 (stereo unspecified) = 112 to 114 °C

Dear colleague, I am looking for the recorded melting point of the following molecule: COc1ccc(N2CCN(c3c(C)c(C)c4c(c3C)C(c3ccccc3)C(C)(C)O4)CC2)cc1 (stereo unspecified) 126 to 128 °C

Consider the molecule COc1ccc2c(c1)CCC(c1ccncc1)O2 (stereo unspecified) and give its measured melting point. 88 to 91 °C

What melting point value was documented for this molecule, Cc1c(CO)c(CO)c2n1Cc1c(c3ccccc3n1C)C2 ? 200 to 201 °C

Entry COc1cccc(CNC(=O)[C@H]2N(C(=O)[C@@H](O)[C@@H](Cc3ccccc3)NC(=O)c3cccc(O)c3C)CSC2(C)C)c1 : reported melting point = ? 108 to 110 °C

Which melting point is reported for this molecule? N#CCN1CC[C@@H](NCc2ccccc2)[C@H](O)C1 (relative stereo) 113 °C

Given the molecule CCOCCOc1ccc(-c2nc(=O)c3ccccc3s2)cn1 , what is its reported melting point? 93.6 to 94.9 °C

I would be grateful if you could share the reported melting point for COc1cc(N)c(-c2ncn[nH]2)cc1OC . 205 to 210 °C

State the recorded melting point for this entry: CC1CCC(=NC(=O)Nc2cccc(Cl)c2)N1C (stereo unspecified) 129 to 130 °C

Report melting point for COc1cc(-c2ccc(N)cn2)cc(OC)c1OC please. 154 to 156 °C

Requested field: melting point. Item: N=C(NCc1ccn(C2=CC3=C(CC2)CCc2[nH]c(=O)c(=O)n(CC(=O)O)c23)c1)Nc1ccccc1 > 225 °C

Given the entry N#CCn1nnc(NC(=O)C(c2ccccc2)c2ccccc2)n1 , report its measured melting point. 173 to 174 °C

Reported melting point for CN(C)CCCNC(=O)c1ccccc1-c1nnc(CSCCOc2ccccc2)o1 : what is it? 60 to 65 °C

I am curious: what melting point value has been reported for CC(C)C[C@H](NC(=O)C12CC3CC(CC(C3)C1)C2)C(=O)NCC(N)=O ? 123 to 127 °C

Given CCOCc1nc2c(N)nc(C)c(C)c2n1CCNS(C)(=O)=O , state its recorded melting point. 185 to 187 °C

Reported melting point, molecule COC(=O)Cc1c(C)n(Cc2ccccc2OC)c2ccc(OC)cc12 : ____ 98 to 100 °C
